Assay: 13-week repeated oral toxicity: weight measurement
Assay type: in vivo, beagle
Conditions: 500 mg/kg repeated oral (G3), male, week 12, mean
assay-endpoint: Weight, Mean (kg)
Please reply with the bare figure in kg and do not write the unit itself.

Query :: Param item = CN1C(=O)NC(=O)C1O (stereo not shown) ; retrieve measured Weight, Mean.
Result :: 10.2

###

Test: 13-week repeated oral toxicity: weight measurement
Format: in vivo, beagle
Settings: 500 mg/kg repeated oral (G3), male, week 10, mean
assay-endpoint: Weight, Mean (kg)
Please reply with the bare figure in kg and do not write the unit itself.

Query :: Param item = CN1C(=O)NC(=O)C1O (stereo not shown) ; retrieve measured Weight, Mean.
Result :: 10.2

###

Experiment: 13-week repeated oral toxicity: weight measurement
Format: in vivo, beagle
Details: 1,000 mg/kg repeated oral (G4), male, week 3, mean
assay-endpoint: Weight, Mean (kg)
Please reply with the bare figure in kg and do not write the unit itself.

Query :: Param item = CN1C(=O)NC(=O)C1O (stereo not shown) [KBP-001] ; retrieve measured Weight, Mean.
Result :: 10

###

Test: Pharmacokinetic analysis in beagles after oral administration
Type: in vivo, beagle
Conditions: beagle, dog, plasma, po, 100 mg/kg, oral G3 (100 ng/kg [sic]; text 100 mg/kg), mean; read-out: Cmax (average highest plasma concentration)
assay-endpoint: Cmax (µg/mL)
Please reply with the bare figure in µg/mL and do not write the unit itself.

Query :: Param item = CN1C(=O)NC(=O)C1O (stereo not shown) ; retrieve measured Cmax.
Result :: 102

###

System: beagles
Experiment: 13-week repeated oral toxicity: hematological test
Type: in vivo, beagle
Settings: G2 200 mg/kg group, female (F4-F6, Mean), before administration (day 0); mean
assay-endpoint: MCH (pg)
Please reply with the bare figure in pg and do not write the unit itself.

Query :: Param item = CN1C(=O)NC(=O)C1O (stereo not shown) ; retrieve measured MCH.
Result :: 22.6

###

Test: 13-week repeated oral toxicity: weight measurement
Type: in vivo, beagle
Conditions: 1,000 mg/kg repeated oral (G4), male, week 10, mean
assay-endpoint: Weight, Mean (kg)
Please reply with the bare figure in kg and do not write the unit itself.

Query :: Param item = CN1C(=O)NC(=O)C1O (stereo not shown) [KBP-001] ; retrieve measured Weight, Mean.
Result :: 10.2

###

Test system: beagles
Test: 13-week repeated oral toxicity: hematological test
Format: in vivo, beagle
Conditions: G4 1,000 mg/kg, repeated administration for 13 weeks, female, group mean
assay-endpoint: MCV (fL)
Please reply with the bare figure in fL and do not write the unit itself.

Query :: Param item = CN1C(=O)NC(=O)C1O (stereo not shown) ; retrieve measured MCV.
Result :: 68.8

###

Test system: beagles
Experiment: 13-week repeated oral toxicity: hematological test
Type: in vivo, beagle
Details: G4 1,000 mg/kg group, female (F10-F12, Mean), before administration (day 0); mean
assay-endpoint: MCV (fL)
Please reply with the bare figure in fL and do not write the unit itself.

Query :: Param item = CN1C(=O)NC(=O)C1O (stereo not shown) ; retrieve measured MCV.
Result :: 55.4

###

System: beagles
Assay: 13-week repeated oral toxicity: urine test
Assay type: in vivo, beagle
Details: urine, before administration, 200 mg/kg group, male, group mean
assay-endpoint: Specific gravity
The response must contain the number and no unit.

Query :: Param item = CN1C(=O)NC(=O)C1O (stereo not shown) ; retrieve measured Specific gravity.
Result :: 1.03

###

Assay: 13-week repeated oral toxicity: weight measurement
Assay type: in vivo, beagle
Settings: 200 mg/kg repeated oral (G2), male, week 5, mean
assay-endpoint: Weight, Mean

Query :: Param item = CN1C(=O)NC(=O)C1O (stereo not shown) [KBP-001] ; retrieve measured Weight, Mean.
Result :: 10.3 kg

###

Assay: Pharmacokinetic analysis in beagles after oral administration
Type: in vivo, beagle
Conditions: beagle, dog, plasma, po, 10 mg/kg, oral 10 mg/kg (G1), mean; read-out: Cmax (average highest plasma concentration)
assay-endpoint: Cmax (ng/mL)
Please reply with the bare figure in ng/mL and do not write the unit itself.

Query :: Param item = CN1C(=O)NC(=O)C1O (stereo not shown) ; retrieve measured Cmax.
Result :: 15000

###

Assay: 13-week repeated oral toxicity: weight measurement
Type: in vivo, beagle
Details: 200 mg/kg repeated oral (G2), male, week 13, mean
assay-endpoint: Weight, Mean (kg)
Please reply with the bare figure in kg and do not write the unit itself.

Query :: Param item = CN1C(=O)NC(=O)C1O (stereo not shown) ; retrieve measured Weight, Mean.
Result :: 10.3

###

Assay: 13-week repeated oral toxicity: weight measurement
Format: in vivo, beagle
Conditions: 1,000 mg/kg repeated oral (G4), male, week 2, mean
assay-endpoint: Weight, Mean
In your response, the unit should come after the numeric value.

Query :: Param item = CN1C(=O)NC(=O)C1O (stereo not shown) ; retrieve measured Weight, Mean.
Result :: 10.1 kg

###

Assay: 13-week repeated oral toxicity: weight measurement
Format: in vivo, beagle
Conditions: 500 mg/kg repeated oral (G3), female, week 7, mean
assay-endpoint: Weight, Mean (kg)
Please reply with the bare figure in kg and do not write the unit itself.

Query :: Param item = CN1C(=O)NC(=O)C1O (stereo not shown) ; retrieve measured Weight, Mean.
Result :: 9.8

###

System: beagles
Test: 13-week repeated oral toxicity: hematological test
Assay type: in vivo, beagle
Settings: G4 1,000 mg/kg, repeated administration for 13 weeks, male, group mean
assay-endpoint: MCV
In your response, the unit should come after the numeric value.

Query :: Param item = CN1C(=O)NC(=O)C1O (stereo not shown) [KBP-001] ; retrieve measured MCV.
Result :: 68.6 fL

###

Assay: 13-week repeated oral toxicity: weight measurement
Format: in vivo, beagle
Details: 500 mg/kg repeated oral (G3), female, week 6, mean
assay-endpoint: Weight, Mean

Query :: Param item = CN1C(=O)NC(=O)C1O (stereo not shown) [KBP-001] ; retrieve measured Weight, Mean.
Result :: 9.8 kg

###

Tested on: beagles
Test: 13-week repeated oral toxicity: hematological test
Type: in vivo, beagle
Conditions: G3 500 mg/kg, repeated administration for 13 weeks, female, group mean
assay-endpoint: MCV (fL)
Please reply with the bare figure in fL and do not write the unit itself.

Query :: Param item = CN1C(=O)NC(=O)C1O (stereo not shown) [KBP-001] ; retrieve measured MCV.
Result :: 70.2

###

Assay: 13-week repeated oral toxicity: weight measurement
Format: in vivo, beagle
Conditions: 1,000 mg/kg repeated oral (G4), female, week 6, mean
assay-endpoint: Weight, Mean (kg)
Please reply with the bare figure in kg and do not write the unit itself.

Query :: Param item = CN1C(=O)NC(=O)C1O (stereo not shown) ; retrieve measured Weight, Mean.
Result :: 9.4

###

Test: 13-week repeated oral toxicity: weight measurement
Assay type: in vivo, beagle
Settings: 1,000 mg/kg repeated oral (G4), male, week 13, mean
assay-endpoint: Weight, Mean (kg)
Please reply with the bare figure in kg and do not write the unit itself.

Query :: Param item = CN1C(=O)NC(=O)C1O (stereo not shown) ; retrieve measured Weight, Mean.
Result :: 10.2

###

Assay: 13-week repeated oral toxicity: weight measurement
Type: in vivo, beagle
Settings: 200 mg/kg repeated oral (G2), male, week 9, mean
Procedure: During the 13-week test period starting from the day before administration, the weight was measured a total of 15 times before administration (pre), before administration on the day of administration, and every week over the 13-week test period after the first administration at a predetermined time (remaining feed measurement time) before administration of the test substance (on every Tuesday during the test period).
assay-endpoint: Weight, Mean (kg)
Please reply with the bare figure in kg and do not write the unit itself.

Query :: Param item = CN1C(=O)NC(=O)C1O (stereo not shown) ; retrieve measured Weight, Mean.
Result :: 10.3
